Test system: C. dubliniensis T-99
Experiment: MIC80 broth double-dilution assay
Assay type: cell-based
Settings: YPAD medium, 30° C., 24 h
Listed next: entries and their corresponding MIC80 against C. dubliniensis T-99.
Please answer in the form of a number followed by its unit of measurement.

COc1ccc2cc([C@H](C)C(=O)NC[C@@](O)(Cn3cncn3)c3ccc(F)cc3F)ccc2c1; 32 µg/mL

Exercise: Item under review: C[C@H](C(=O)NC[C@@](O)(Cn1cncn1)c1ccc(F)cc1F)c1ccc(-c2ccccc2)c(F)c1 . Reported MIC80 against C. dubliniensis T-99?
Key: 2 µg/mL

Exercise: Find the recorded MIC80 against C. dubliniensis T-99 belonging to O=C(NC[C@](O)(Cn1cncn1)c1ccc(F)cc1F)c1cc(-c2ccc(F)cc2F)ccc1O and report it.
Key: 2 µg/mL

Exercise: Looking for the measured MIC80 against C. dubliniensis T-99 of CC(C)Cc1ccc([C@@H](C)C(=O)NC[C@@](O)(Cn2cncn2)c2ccc(F)cc2F)cc1 , can you help?
Key: 1 µg/mL

###

MIC80 against C. dubliniensis T-99 values by entry
System: C. dubliniensis T-99
Test: MIC80 broth double-dilution assay
Assay type: cell-based
Details: YPAD medium, 30° C., 24 h
The answer is to be given in µg/mL; state only the numeric part.

Example compounds with recorded MIC80 against C. dubliniensis T-99:
C[C@H](C(=O)NC[C@](O)(Cn1cncn1)c1ccc(F)cc1F)c1ccc(-c2ccccc2)c(F)c1 [Hybrid 5]; 0.5
C[C@@H](C(=O)NC[C@@](O)(Cn1cncn1)c1ccc(F)cc1F)c1cccc(C(=O)c2ccccc2)c1 [Hybrid 15]; 16
O=C(NC[C@](O)(Cn1cncn1)c1ccc(F)cc1F)c1ccccc1O [Hybrid 21]; 2

Exercise: Dear colleague, I am looking for the recorded MIC80 against C. dubliniensis T-99 of the following compound: C[C@H](C(=O)NC[C@@](O)(Cn1cncn1)c1ccc(F)cc1F)c1cccc(C(=O)c2ccccc2)c1 [Hybrid 16]
Key: 16

###

System: C. tropicalis 660
Experiment: Disk diffusion assay for antifungal tolerance
Assay type: cell-based
Conditions: casitone agar, disk with 25 μg, 30° C.
PROPERTY: Tolerance: zone of inhibition after 48 h compared with 24 h

CC(C)Cc1ccc([C@H](C)C(=O)NC[C@](O)(Cn2cncn2)c2ccc(F)cc2F)cc1; reduced tolerance
C[C@H](C(=O)NC[C@](O)(Cn1cncn1)c1ccc(F)cc1F)c1ccc(-c2ccccc2)c(F)c1; reduced tolerance

###

System: C. albicans ATCC 90028
Assay: MIC80 broth double-dilution assay
Assay type: cell-based
Settings: YPAD medium, 30° C., 24 h
MIC80 against C. albicans 90028 strictly less than 0.1 µg/mL = yes. Otherwise no.

Would you please look over these solved cases?
O=C(NC[C@@](O)(Cn1cncn1)c1ccc(F)cc1F)c1ccccc1O; no
O=C(Cc1ccccc1Nc1c(Cl)cccc1Cl)NC[C@](O)(Cn1cncn1)c1ccc(F)cc1F; no
C[C@@H](C(=O)NC[C@](O)(Cn1cncn1)c1ccc(F)cc1F)c1cccc(C(=O)c2ccccc2)c1; no

Exercise: Hi there! Is MIC80 against C. albicans 90028 for COc1ccc2cc([C@H](C)C(=O)NC[C@@](O)(Cn3cncn3)c3ccc(F)cc3F)ccc2c1 below 0.1 µg/mL, do you know?
Key: no

Exercise: Please let me know if O=C(NC[C@](O)(Cn1cncn1)c1ccc(F)cc1F)c1cccnc1Nc1cccc(C(F)(F)F)c1 shows MIC80 against C. albicans 90028 below 0.1 µg/mL.
Key: no

Exercise: Could you please tell me whether MIC80 against C. albicans 90028 recorded for CC(C)Cc1ccc([C@H](C)C(=O)NC[C@@](O)(Cn2cncn2)c2ccc(F)cc2F)cc1 is less than 0.1 µg/mL?
Key: no
